Reference source for all entries: ChEMBL document CHEMBL5303573

settings: parabacteroides johnsonii, 12 h, 2 µM
Description: The drug is tested on Parabacteroides johnsonii strain: DSM18315 for biotransformation. The drug concentrations were measured before and after a 12-h incubation by liquid-chromatography-coupled mass spectrometry (LC–MS)
test readout: Bacterial Biotransformation

CN1CCC(=C2c3ccccc3CCc3cccnc32)CC1.O=C(O)/C=C\C(=O)O.O=C(O)/C=C\C(=O)O [AZATADINE MALEATE] ... Compound NOT metabolized
COc1ccc2c3c1O[C@H]1C[C@@H](O)C=C[C@@]31CCN(C)C2 ... Compound NOT metabolized
CCc1oc2ccccc2c1C(=O)c1cc(Br)c(O)c(Br)c1 ... Compound NOT metabolized
Cc1ccc(/C(=C\CN2CCCC2)c2ccccn2)cc1 ... Compound NOT metabolized

Could you please provide reported Bacterial Biotransformation for CC1=C(CC(=O)O)c2cc(F)ccc2/C1=C\c1ccc([S+](C)[O-])cc1 (stereo not given) ? Thanks! Compound NOT metabolized

Could you please provide reported Bacterial Biotransformation for "COc1ccc([C@@H]2Sc3ccccc3N(CCN(C)C)C(=O)[C@@H]2OC(C)=O)cc1" ? Thanks! Compound metabolized

Could you please provide reported Bacterial Biotransformation for CCN(CC)CC#CCOC(=O)C(O)(c1ccccc1)C1CCCCC1.Cl (stereo not given) [OXYBUTYNIN CHLORIDE] ? Thanks! Compound NOT metabolized

Could you please provide reported Bacterial Biotransformation for O=C1N=C([O-])NC1(c1ccccc1)c1ccccc1.[Na+] [PHENYTOIN SODIUM] ? Thanks! Compound metabolized

Could you please provide reported Bacterial Biotransformation for "CNC(=C[N+](=O)[O-])NCCSCc1ccc(CN(C)C)o1" ? Thanks! Compound metabolized

Could you please provide reported Bacterial Biotransformation for NC(CO)(CO)CO.O=C(c1ccccc1)c1ccc2n1CCC2C(=O)O (stereo not given) ? Thanks! Compound NOT metabolized

Could you please provide reported Bacterial Biotransformation for "Cc1nc(Nc2ncc(C(=O)Nc3c(C)cccc3Cl)s2)cc(N2CCN(CCO)CC2)n1.O" ? Thanks! Compound metabolized

Could you please provide reported Bacterial Biotransformation for CCCN1C[C@H](CSC)C[C@@H]2c3cccc4[nH]cc(c34)C[C@H]21.CS(=O)(=O)O [PERGOLIDE MESYLATE] ? Thanks! Compound NOT metabolized

Could you please provide reported Bacterial Biotransformation for CN1C[C@H](C(=O)N[C@]2(C)O[C@@]3(O)[C@@H]4CCCN4C(=O)[C@H](Cc4ccccc4)N3C2=O)C=C2c3cccc4[nH]cc(c34)C[C@H]21.CN1C[C@H](C(=O)N[C@]2(C)O[C@@]3(O)[C@@H]4CCCN4C(=O)[C@H](Cc4ccccc4)N3C2=O)C=C2c3cccc4[nH]cc(c34)C[C@H]21.O=C(O)C(O)C(O)C(=O)O [ERGOTAMINE TARTRATE] ? Thanks! Compound metabolized

Could you please provide reported Bacterial Biotransformation for "CO[C@]12C[C@@H](COC(=O)c3cncc(Br)c3)CN(C)[C@@H]1Cc1cn(C)c3cccc2c13" ? Thanks! Compound NOT metabolized

Could you please provide reported Bacterial Biotransformation for "COc1ccc2c(c1OC)C(=O)O[C@@H]2[C@H]1c2c(cc3c(c2OC)OCO3)CCN1C" ? Thanks! Compound metabolized

---

procedure summary: The drug is tested on Clostridium scindens strain: ATCC35704 for biotransformation. The drug concentrations were measured before and after a 12-h incubation by liquid-chromatography-coupled mass spectrometry (LC–MS)
settings: 2 µM
test readout: Bacterial Biotransformation

NC(=O)N1c2ccccc2CC(=O)c2ccccc21 [OXCARBAZEPINE] ... Compound metabolized
CCOC(=O)[C@H](CCc1ccccc1)N[C@@H](C)C(=O)N1Cc2ccccc2C[C@H]1C(=O)O ... Compound NOT metabolized
CNC(=C[N+](=O)[O-])NCCSCc1csc(CN(C)C)n1 ... Compound metabolized
CN1CCC[C@@H]1CCO[C@](C)(c1ccccc1)c1ccc(Cl)cc1.O=C(O)/C=C/C(=O)O [CLEMASTINE FUMARATE] ... Compound NOT metabolized
CC(C)NCC(O)COc1ccc(CCOCC2CC2)cc1 (stereo not given) ... Compound NOT metabolized
O=c1n(CCCN2CCN(c3cccc(Cl)c3)CC2)nc2ccccn12 ... Compound NOT metabolized
CC(C)C[C@H]1C(=O)N2CCC[C@H]2[C@]2(O)O[C@](NC(=O)[C@@H]3C=C4c5cccc6[nH]c(Br)c(c56)C[C@H]4N(C)C3)(C(C)C)C(=O)N12.CS(=O)(=O)O [BROMOCRIPTINE MESYLATE] ... Compound metabolized
CN(C)CCOC(c1ccc(Cl)cc1)c1ccccn1.O=C(O)/C=C\C(=O)O (stereo not given) [CARBINOXAMINE MALEATE] ... Compound NOT metabolized

Could you please provide reported Bacterial Biotransformation for COCCCC/C(=N\OCCN)c1ccc(C(F)(F)F)cc1.O=C(O)/C=C\C(=O)O [FLUVOXAMINE MALEATE] ? Thanks! Compound NOT metabolized

Could you please provide reported Bacterial Biotransformation for CC(=O)OCC(=O)[C@@]1(OC(C)=O)[C@@H](C)C[C@H]2[C@@H]3C[C@H](F)C4=CC(=O)C=C[C@]4(C)[C@@]3(F)[C@@H](O)C[C@@]21C [DIFLORASONE DIACETATE] ? Thanks! Compound NOT metabolized

Could you please provide reported Bacterial Biotransformation for OC(CCN1CCCCC1)(c1ccccc1)C1CC2C=CC1C2 (stereo not given) ? Thanks! Compound NOT metabolized

Could you please provide reported Bacterial Biotransformation for Nc1nc(NC2CC2)c2ncn([C@H]3C=C[C@@H](CO)C3)c2n1.Nc1nc(NC2CC2)c2ncn([C@H]3C=C[C@@H](CO)C3)c2n1.O=S(=O)(O)O [ABACAVIR SULFATE] ? Thanks! Compound NOT metabolized

Could you please provide reported Bacterial Biotransformation for "COc1ccc2cc([C@H](C)C(=O)O)ccc2c1" ? Thanks! Compound NOT metabolized

Could you please provide reported Bacterial Biotransformation for "O=C1CC2(CCCC2)CC(=O)N1CCCCN1CCN(c2ncccn2)CC1" ? Thanks! Compound NOT metabolized

Could you please provide reported Bacterial Biotransformation for C[C@@H](CO)NC(=O)[C@@H]1C=C2c3cccc4[nH]cc(c34)C[C@H]2N(C)C1.O=C(O)/C=C\C(=O)O [ERGONOVINE MALEATE] ? Thanks! Compound metabolized

Could you please provide reported Bacterial Biotransformation for CC(N)C12CC3CC(CC(C3)C1)C2 (stereo not given) ? Thanks! Compound NOT metabolized
